Values compiled from patent US20240294661A1.

- measurementTarget: membrane-bound tissue factor (TF) on cells (human, UniProt P13726 33-295)
- assayProtocol: cell-based or functional assay
endpointName: IC50 of cell killing, HPAF-II cells, ADC killing assay (ng/mL)
Reply numerically in ng/mL, unit not repeated.

The following binders have reported results that may help.
# binder, assayResult
measured = [
    ("HuMab-TF-098-vcMMAE (antibody, IgG1, V domains shown, vcMMAE drug-linker alkylated to cysteines of the reduced antibody (positions not given), DAR 3.9 by RP-HPLC, 3.7 by HIC) VH: QVQLVQSGAEVRKPGSSVKVSCKASGGSFNNYPIFWVRQAPGQGFEWMGRIIPILGITAYAQKFQGRVTITADKSTSTAYMELNSLRSEDTAVYYCAGGDDLDAFDIWGQGTMVSVSS VL: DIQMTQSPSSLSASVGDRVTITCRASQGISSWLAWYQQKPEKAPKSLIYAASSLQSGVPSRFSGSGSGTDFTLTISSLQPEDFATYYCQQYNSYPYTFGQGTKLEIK", 1),
    ("HuMab-TF-011-mcMMAF (antibody, IgG1, V domains shown, mcMMAF drug-linker alkylated to cysteines of the reduced antibody (positions not given), DAR 3.9 by RP-HPLC, 4.1 by HIC) VH: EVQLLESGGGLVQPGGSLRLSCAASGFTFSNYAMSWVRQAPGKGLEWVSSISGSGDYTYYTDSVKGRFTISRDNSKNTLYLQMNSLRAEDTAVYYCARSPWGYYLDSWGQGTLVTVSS VL: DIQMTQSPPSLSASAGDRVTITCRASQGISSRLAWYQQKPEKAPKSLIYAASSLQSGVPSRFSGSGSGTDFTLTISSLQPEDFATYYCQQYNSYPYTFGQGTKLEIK", 5),
]

Moving on to the next binder.
# query: IC50 of cell killing, HPAF-II cells, ADC killing assay of entry HuMab-TF-011-vcMMAE (antibody, IgG1, V domains shown, vcMMAE drug-linker alkylated to cysteines of the reduced antibody (positions not given), DAR 3.9 by RP-HPLC, 3.9 by HIC) VH: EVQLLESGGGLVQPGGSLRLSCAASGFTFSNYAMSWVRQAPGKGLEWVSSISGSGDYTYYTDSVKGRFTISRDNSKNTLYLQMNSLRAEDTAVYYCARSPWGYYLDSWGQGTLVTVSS VL: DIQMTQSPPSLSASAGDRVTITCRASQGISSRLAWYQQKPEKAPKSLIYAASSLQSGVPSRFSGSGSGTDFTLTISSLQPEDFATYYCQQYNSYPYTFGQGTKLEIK
3
